TGT: beta-lactamase class D OXA-48 (Klebsiella pneumoniae)
Assay type: biochemical
PARAMETER_MEASURED: [meropenem] (mg/L) Replicates 1

chemical_smiles=[Ca+2].[Cl-].[Cl-] numeric_readout=0.05

* * *

TGT: beta-lactamase class D OXA-48 (Klebsiella pneumoniae)
Type: biochemical
CONDITION_CONTEXT: second drug alone in ultrafiltrated serum at 10 times recommended blood concentration; result expressed as meropenem concentration, theoretically zero; replicate 2
We use 0.06 mg/L as the dividing line for [meropenem] (mg/L) Replicates 2: on or above the line is Criterion met, below is Criterion not met.

compound=OC(Cn1cncn1)(Cn1cncn1)c1ccc(F)cc1F label_class="Criterion met"
compound="CC(C)(C)NCC(O)c1ccc(O)c(CO)c1 (stereo not drawn)" label_class="Criterion met"
compound="CNCC(O)c1ccc(O)c(O)c1 (stereo not drawn)" label_class="Criterion not met"
compound=NC[C@H](O)c1ccc(O)c(O)c1 label_class="Criterion not met"
compound=C[C@]12CCC(=O)C=C1CC[C@@H]1[C@@H]2[C@@H](O)C[C@@]2(C)[C@H]1CC[C@]2(O)C(=O)COC(=O)CCC(=O)O label_class="Criterion not met"

* * *

TGT: beta-lactamase class D OXA-48 (Klebsiella pneumoniae, UniProt Q6XEC0)
Sequence (Q6XEC0 23-265 limits assumed): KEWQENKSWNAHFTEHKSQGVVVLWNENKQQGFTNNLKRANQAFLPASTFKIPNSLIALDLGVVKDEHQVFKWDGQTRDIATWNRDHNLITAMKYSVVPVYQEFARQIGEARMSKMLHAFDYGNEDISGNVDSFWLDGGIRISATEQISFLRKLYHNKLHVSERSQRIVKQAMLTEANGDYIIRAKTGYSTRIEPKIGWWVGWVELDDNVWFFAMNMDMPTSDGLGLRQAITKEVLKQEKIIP
Assay type: biochemical
CONDITION_CONTEXT: Meropenem 20.0 mg/L, second β-lactam 200.0 mg/L (10 times excess), replicate 1
PARAMETER_MEASURED: [Meropenem] Replicate 1 (mg/L)

chemical_smiles=CC(C)(O/N=C(\C(=O)N[C@@H]1C(=O)N2C(C(=O)[O-])=C(C[n+]3ccccc3)CS[C@H]12)c1csc(N)n1)C(=O)O tgt="beta-lactamase class D OXA-48 (Klebsiella pneumoniae, UniProt Q6XEC0)" unit_descriptor=mg/L numeric_readout=20.6
chemical_smiles=Cn1nnnc1SCC1=C(C(=O)O)N2C(=O)[C@@H](NC(=O)[C@H](O)c3ccccc3)[C@H]2SC1 tgt="beta-lactamase class D OXA-48 (Klebsiella pneumoniae, UniProt Q6XEC0)" unit_descriptor=mg/L numeric_readout=21.5
chemical_smiles=C[C@@H](O)[C@H]1C(=O)N2C(C(=O)O)=C(S[C@@H]3CN[C@H](C(=O)N(C)C)C3)[C@H](C)[C@H]12 tgt="beta-lactamase class D OXA-48 (Klebsiella pneumoniae, UniProt Q6XEC0)" unit_descriptor=mg/L numeric_readout=20.7
chemical_smiles=CC1(C)S[C@@H]2[C@H](NC(=O)[C@H](N)c3ccccc3)C(=O)N2[C@H]1C(=O)O tgt="beta-lactamase class D OXA-48 (Klebsiella pneumoniae, UniProt Q6XEC0)" unit_descriptor=mg/L numeric_readout=20.5
chemical_smiles=CO/N=C(\C(=O)N[C@@H]1C(=O)N2C(C(=O)O)=C(COC(N)=O)CS[C@H]12)c1ccco1 tgt="beta-lactamase class D OXA-48 (Klebsiella pneumoniae, UniProt Q6XEC0)" unit_descriptor=mg/L numeric_readout=21.8
chemical_smiles=CC1(C)S[C@@H]2[C@H](NC(=O)[C@H](C(=O)O)c3ccsc3)C(=O)N2[C@H]1C(=O)O tgt="beta-lactamase class D OXA-48 (Klebsiella pneumoniae, UniProt Q6XEC0)" unit_descriptor=mg/L numeric_readout=22.7
chemical_smiles=CO/N=C(\C(=O)N[C@@H]1C(=O)N2C(C(=O)O)=C(CSc3nc(=O)c(O)nn3C)CS[C@H]12)c1csc(N)n1 tgt="beta-lactamase class D OXA-48 (Klebsiella pneumoniae, UniProt Q6XEC0)" unit_descriptor=mg/L numeric_readout=22.3
chemical_smiles=CO/N=C(\C(=O)N[C@@H]1C(=O)N2C(C(=O)O)=C(COC(C)=O)CS[C@H]12)c1csc(N)n1 tgt="beta-lactamase class D OXA-48 (Klebsiella pneumoniae, UniProt Q6XEC0)" unit_descriptor=mg/L numeric_readout=20.8
chemical_smiles=Cc1onc(-c2ccccc2)c1C(=O)N[C@@H]1C(=O)N2[C@@H]1SC(C)(C)[C@@H]2C(=O)O tgt="beta-lactamase class D OXA-48 (Klebsiella pneumoniae, UniProt Q6XEC0)" unit_descriptor=mg/L numeric_readout=21.8

* * *

TGT: beta-lactamase class D OXA-48 (Klebsiella pneumoniae, UniProt Q6XEC0)
Assay type: biochemical
CONDITION_CONTEXT: Meropenem 20.0 mg/L, second β-lactam 200.0 mg/L (10 times excess), average of 5 replicates
[Meropenem] <> (average): recorded values
PARAMETER_MEASURED: [Meropenem] <> (average)

molecule="Cn1nnnc1SCC1=C(C(=O)O)N2C(=O)[C@@H](NC(=O)[C@H](O)c3ccccc3)[C@H]2SC1 [Cefamandole ®, Cefamandole]" result="22.0 mg/L"
molecule="CO/N=C(\\C(=O)N[C@@H]1C(=O)N2C(C(=O)O)=C(COC(C)=O)CS[C@H]12)c1csc(N)n1 [Cefotaxim ® Sandoz]" result="20.5 mg/L"
molecule="CC1(C)S[C@@H]2[C@H](NC(=O)[C@H](N)c3ccccc3)C(=O)N2[C@H]1C(=O)O [Pentrexyl ®]" result="21.1 mg/L"
molecule="CC1(C)S[C@@H]2[C@H](NC(=O)[C@H](C(=O)O)c3ccsc3)C(=O)N2[C@H]1C(=O)O [Ticarpen ®]" result="22.6 mg/L"
molecule="CC(C)(O/N=C(\\C(=O)N[C@@H]1C(=O)N2C(C(=O)[O-])=C(C[n+]3ccccc3)CS[C@H]12)c1csc(N)n1)C(=O)O [Ceftazidime]" result="20.1 mg/L"
molecule="C[C@@H](O)[C@H]1C(=O)N2C(C(=O)O)=C(S[C@@H]3CN[C@H](C(=O)N(C)C)C3)[C@H](C)[C@H]12 [Meropenem, meropenem]" result="20.2 mg/L"
molecule="CO/N=C(\\C(=O)N[C@@H]1C(=O)N2C(C(=O)O)=C(CSc3nc(=O)c(O)nn3C)CS[C@H]12)c1csc(N)n1 [Ceftria ®]" result="21.1 mg/L"
molecule="CO/N=C(\\C(=O)N[C@@H]1C(=O)N2C(C(=O)O)=C(COC(N)=O)CS[C@H]12)c1ccco1 [Zinacef ®]" result="21.9 mg/L"
molecule="Cc1onc(-c2ccccc2)c1C(=O)N[C@@H]1C(=O)N2[C@@H]1SC(C)(C)[C@@H]2C(=O)O [Penstapho ®]" result="22.9 mg/L"

* * *

TGT: Imp1 beta-lactamase (class B) (Serratia marcescens)
Sequence (P52699 19-246 limits assumed): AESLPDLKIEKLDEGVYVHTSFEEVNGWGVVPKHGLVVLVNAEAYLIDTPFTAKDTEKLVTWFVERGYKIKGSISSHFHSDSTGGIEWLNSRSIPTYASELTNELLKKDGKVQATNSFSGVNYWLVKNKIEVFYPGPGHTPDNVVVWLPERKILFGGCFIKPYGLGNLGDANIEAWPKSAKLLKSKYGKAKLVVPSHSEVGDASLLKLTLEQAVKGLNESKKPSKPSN
Type: biochemical
CONDITION_CONTEXT: nitrocefin reporter
PARAMETER_MEASURED: hydrolysis rate symbol, (Vmax/V0)-1

chemical_smiles=CO/N=C(\C(=O)N[C@@H]1C(=O)N2C(C(=O)O)=C(COC(C)=O)CS[C@H]12)c1csc(N)n1 result="+ (0.1-1)"
chemical_smiles=C[C@@H](O)[C@H]1C(=O)N2C(C(=O)O)=C(S[C@@H]3CN[C@H](C(=O)N(C)C)C3)[C@H](C)[C@H]12 result="+ (0.1-1)"
chemical_smiles=CO/N=C(\C(=O)N[C@@H]1C(=O)N2C(C(=O)O)=C(COC(N)=O)CS[C@H]12)c1ccco1 result="+ (0.1-1)"

* * *

TGT: beta-lactamase class D OXA-48 (Klebsiella pneumoniae)
Type: biochemical
CONDITION_CONTEXT: second drug alone in ultrafiltrated serum at 10 times recommended blood concentration; result expressed as meropenem concentration, theoretically zero; replicate 1
[meropenem] (mg/L) Replicates 1: recorded values
PARAMETER_MEASURED: [meropenem] (mg/L) Replicates 1

compound="CC(CCc1ccc(O)cc1)NCCc1ccc(O)c(O)c1 (centres unmarked)" numeric_readout=-0.07
compound=C[C@]12CCC(=O)C=C1CC[C@@H]1[C@@H]2[C@@H](O)C[C@@]2(C)[C@H]1CC[C@]2(O)C(=O)COC(=O)CCC(=O)O numeric_readout=-0.10
compound="CNCC(O)c1ccc(O)c(O)c1 (centres unmarked)" numeric_readout=0.06
compound=CCC1(CC)C(=O)NC(=S)NC1=O numeric_readout=0.12
compound=OC(Cn1cncn1)(Cn1cncn1)c1ccc(F)cc1F numeric_readout=0.02

* * *

Accuracy Replicate 4: recorded values
TGT: beta-lactamase class D OXA-48 (Klebsiella pneumoniae)
Assay type: biochemical
CONDITION_CONTEXT: Meropenem 20.0 mg/L, second β-lactam 200.0 mg/L (10 times excess), replicate 4
PARAMETER_MEASURED: Accuracy Replicate 4 (%)

molecule="C[C@@H](O)[C@H]1C(=O)N2C(C(=O)O)=C(S[C@@H]3CN[C@H](C(=O)N(C)C)C3)[C@H](C)[C@H]12 [Meropenem, meropenem]" tgt="beta-lactamase class D OXA-48 (Klebsiella pneumoniae)" numeric_readout=98
molecule="CC1(C)S[C@@H]2[C@H](NC(=O)[C@H](C(=O)O)c3ccsc3)C(=O)N2[C@H]1C(=O)O [Ticarpen ®]" tgt="beta-lactamase class D OXA-48 (Klebsiella pneumoniae)" numeric_readout=98
molecule="CO/N=C(\\C(=O)N[C@@H]1C(=O)N2C(C(=O)O)=C(COC(N)=O)CS[C@H]12)c1ccco1 [Zinacef ®]" tgt="beta-lactamase class D OXA-48 (Klebsiella pneumoniae)" numeric_readout=101
molecule="Cc1onc(-c2ccccc2)c1C(=O)N[C@@H]1C(=O)N2[C@@H]1SC(C)(C)[C@@H]2C(=O)O [Penstapho ®]" tgt="beta-lactamase class D OXA-48 (Klebsiella pneumoniae)" numeric_readout=107
molecule="CC1(C)S[C@@H]2[C@H](NC(=O)[C@H](N)c3ccccc3)C(=O)N2[C@H]1C(=O)O [Pentrexyl ®]" tgt="beta-lactamase class D OXA-48 (Klebsiella pneumoniae)" numeric_readout=95
molecule="Cn1nnnc1SCC1=C(C(=O)O)N2C(=O)[C@@H](NC(=O)[C@H](O)c3ccccc3)[C@H]2SC1 [Cefamandole ®, Cefamandole]" tgt="beta-lactamase class D OXA-48 (Klebsiella pneumoniae)" numeric_readout=105
molecule="CO/N=C(\\C(=O)N[C@@H]1C(=O)N2C(C(=O)O)=C(COC(C)=O)CS[C@H]12)c1csc(N)n1 [Cefotaxim ® Sandoz]" tgt="beta-lactamase class D OXA-48 (Klebsiella pneumoniae)" numeric_readout=91
molecule="CC(C)(O/N=C(\\C(=O)N[C@@H]1C(=O)N2C(C(=O)[O-])=C(C[n+]3ccccc3)CS[C@H]12)c1csc(N)n1)C(=O)O [Ceftazidime]" tgt="beta-lactamase class D OXA-48 (Klebsiella pneumoniae)" numeric_readout=100
molecule="CO/N=C(\\C(=O)N[C@@H]1C(=O)N2C(C(=O)O)=C(CSc3nc(=O)c(O)nn3C)CS[C@H]12)c1csc(N)n1 [Ceftria ®]" tgt="beta-lactamase class D OXA-48 (Klebsiella pneumoniae)" numeric_readout=90
